Recorded IC50 for the following molecules
- TARGET DESC: Fatty acid synthase (Homo sapiens)
- MEASUREMENT DESCRIPTION: FAS thioesterase domain inhibitors, dose response, biochemical, fluorescence intensity, OMFH substrate (AID 1347040)
- STUDY CONDITIONS: recombinant FAS-TE, OMFH fluorogenic substrate
Active and inactive are the calls of the source.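 How the source made its calls: active means IC50 at or below 20 µM (some results past the limit were not filed as active); inactive means the rest.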

- SMILES STRUCTURE: "O=C(Cc1ccc(S(=O)(=O)N2CCOCC2)s1)N1CCN(S(=O)(=O)Cc2ccccc2)CC1"
  IC50: "> 30 µM (inactive)"
- SMILES STRUCTURE: "CS(=O)(=O)N1CCN(C(=O)Cc2ccc(S(=O)(=O)N3CCOCC3)s2)CC1"
  IC50: "> 30 µM (inactive)"
- SMILES STRUCTURE: "CCN(CC)S(=O)(=O)c1ccc(-c2csc(-c3ccc(Cl)cc3)n2)cc1"
  IC50: "10 µM"
- SMILES STRUCTURE: "CCN(CC)S(=O)(=O)c1ccc(-c2csc(Cc3cccc(F)c3)n2)cc1"
  IC50: "1.17 µM"
- SMILES STRUCTURE: "CC(C)(C)c1ccc(CNC(=O)Cc2ccc(S(=O)(=O)N3CCOCC3)s2)cc1"
  IC50: "14.3 µM"
- SMILES STRUCTURE: "O=C(Cc1ccc(S(=O)(=O)N2CCOCC2)s1)N1CCN(S(=O)(=O)c2ccccc2)CC1"
  IC50: "44.6 µM"
- SMILES STRUCTURE: "CCN(CC)S(=O)(=O)c1ccc(-c2csc(-c3ccc(Br)cc3C)n2)cc1"
  IC50: "17.2 µM"
- SMILES STRUCTURE: "CC(C)S(=O)(=O)N1CCN(C(=O)Cc2ccc(S(=O)(=O)N3CCOCC3)s2)CC1"
  IC50: "> 30 µM (inactive)"
- SMILES STRUCTURE: "O=S(=O)(c1ccc(-c2csc(-c3ccc(F)cc3)n2)cc1)N1CCOCC1"
  IC50: "0.291 µM"

Cited source for all entries: PubChem BioAssay AID1347040
